# EXPERIMENTAL_TARGET: human CB1 receptor (Homo sapiens, UniProt P21554)
# Construct: expressed in transfected cells; host or cells: HEK-293
# TEST_METHOD_NOTES: Radioligand displacement in human CB1 receptor-transfected cells (HEK-293)
# Type: binding
# EXPERIMENTAL_SETUP: Ki, displacement of 3H-CP55940
A collection of molecules and their measured Ki

{"columns": ["MOLECULE", "UNITS", "Ki"],
 "data": [
  ["CCCCCCC(C)(C)NC(=O)c1nn(-c2ccc(Cl)cc2Cl)c(-c2ccc(Cl)cc2)c1C", "nM", 32.7],
  ["CCCCCNC(=O)c1nn(-c2ccc(Cl)cc2Cl)c(-c2ccc(Cl)cc2)c1C", "nM", 14.6],
  ["CCCCCCC(C)NC(=O)c1nn(-c2ccc(Cl)cc2Cl)c(-c2ccc(Cl)cc2)c1C (stereo not shown)", "nM", 26.3],
  ["Cc1c(C(=O)NC(C)CCCC(C)C)nn(-c2ccc(Cl)cc2Cl)c1-c1ccc(Cl)cc1 (stereo not shown)", "nM", 7.39]
]}

----------
A collection of compounds and their measured Ki
# EXPERIMENTAL_TARGET: CB1 receptor (Rattus norvegicus, UniProt P20272)
# Construct: Whole rat brains or dissected regions from live CD rats; tissue Charles River or Pel-Freez Biologicals; host or cells: whole rat brain (CD rats), P2 membrane
# Sequence (P20272 whole entry): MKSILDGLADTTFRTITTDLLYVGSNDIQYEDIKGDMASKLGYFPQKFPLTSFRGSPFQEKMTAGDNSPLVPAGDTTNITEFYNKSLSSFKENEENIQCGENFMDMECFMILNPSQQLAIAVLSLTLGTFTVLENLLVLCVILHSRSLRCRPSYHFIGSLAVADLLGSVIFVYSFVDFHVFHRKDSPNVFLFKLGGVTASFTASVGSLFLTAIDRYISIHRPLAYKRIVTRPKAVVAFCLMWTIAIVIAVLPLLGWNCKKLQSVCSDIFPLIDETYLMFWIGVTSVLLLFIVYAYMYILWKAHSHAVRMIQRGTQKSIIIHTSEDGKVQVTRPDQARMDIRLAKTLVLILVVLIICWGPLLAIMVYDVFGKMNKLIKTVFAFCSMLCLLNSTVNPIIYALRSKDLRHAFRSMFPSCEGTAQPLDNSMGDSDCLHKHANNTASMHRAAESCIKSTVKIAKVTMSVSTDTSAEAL
# TEST_METHOD_NOTES: Radioligand displacement in whole rat brain (CB1) membrane preparations
# Format: binding
# EXPERIMENTAL_SETUP: Ki, displacement of 3H-WIN55212-2, whole rat brain; 3H-WIN55212-2; Table 4, parallel synthesis analogs, n = 1, concentration assumes 100% yield

{"columns": ["COMPOUND", "Ki, nM"],
 "data": [
  ["Cc1c(C(=O)NCCC(c2ccccc2)c2ccccc2)nn(-c2ccc(Cl)cc2Cl)c1-c1ccc(Cl)cc1", 10.3],
  ["CCCCCCCCCCCCCNC(=O)c1nn(-c2ccc(Cl)cc2Cl)c(-c2ccc(Cl)cc2)c1C", 495],
  ["CCCCCCCCCCCCNC(=O)c1nn(-c2ccc(Cl)cc2Cl)c(-c2ccc(Cl)cc2)c1C", 238],
  ["CCC(C)CC(C)NC(=O)c1nn(-c2ccc(Cl)cc2Cl)c(-c2ccc(Cl)cc2)c1C (centres unmarked)", 13.7],
  ["CCCCCCC(C)NC(=O)c1nn(-c2ccc(Cl)cc2Cl)c(-c2ccc(Cl)cc2)c1C (centres unmarked)", 5.8],
  ["Cc1c(C(=O)NC(C)Cc2ccc(Cl)cc2)nn(-c2ccc(Cl)cc2Cl)c1-c1ccc(Cl)cc1 (centres unmarked)", 10.1],
  ["CCCCCCCCCC(C)NC(=O)c1nn(-c2ccc(Cl)cc2Cl)c(-c2ccc(Cl)cc2)c1C (centres unmarked)", 22.3],
  ["Cc1c(C(=O)NCCc2ccc(O)cc2)nn(-c2ccc(Cl)cc2Cl)c1-c1ccc(Cl)cc1", 326]
]}

----------
A collection of molecules and their measured Max. Disp. %, 3H-CP55940
# EXPERIMENTAL_TARGET: CB1 receptor (Rattus norvegicus, UniProt P20272)
# Construct: Whole rat brains or dissected regions from live CD rats; tissue Charles River or Pel-Freez Biologicals; host or cells: whole rat brain (CD rats), P2 membrane
# TEST_METHOD_NOTES: Radioligand displacement in whole rat brain (CB1) membrane preparations
# Assay type: binding
# EXPERIMENTAL_SETUP: whole rat brain; 3H-CP55940; Table 4, parallel synthesis analogs, n = 1
QUANTITY_MEASURED: Max. Disp. %, 3H-CP55940 (%)

{"columns": ["MOLECULE", "QUANTITY_MEASURED", "READOUT_VALUE"],
 "data": [
  ["COc1ccc(CCNC(=O)c2nn(-c3ccc(Cl)cc3Cl)c(-c3ccc(Cl)cc3)c2C)cc1 [AM-29]", "Max. Disp. %, 3H-CP55940", 78.8],
  ["Cc1c(C(=O)NC(C)CCCC(C)C)nn(-c2ccc(Cl)cc2Cl)c1-c1ccc(Cl)cc1 (centres unmarked) [AKS-10262-7]", "Max. Disp. %, 3H-CP55940", 89.6],
  ["CCCCCC(C)NC(=O)c1nn(-c2ccc(Cl)cc2Cl)c(-c2ccc(Cl)cc2)c1C (centres unmarked) [AKS-10262-1]", "Max. Disp. %, 3H-CP55940", 98.2],
  ["Cc1c(C(=O)N2CCC(O)(c3ccccc3)CC2)nn(-c2ccc(Cl)cc2Cl)c1-c1ccc(Cl)cc1 [AM-28]", "Max. Disp. %, 3H-CP55940", 97.2],
  ["Cc1c(C(=O)N2CCc3ccccc3C2)nn(-c2ccc(Cl)cc2Cl)c1-c1ccc(Cl)cc1 [AM-50]", "Max. Disp. %, 3H-CP55940", 88.3],
  ["Cc1c(C(=O)NC(C)CCC(C)C)nn(-c2ccc(Cl)cc2Cl)c1-c1ccc(Cl)cc1 (centres unmarked) [AKS-10262-8]", "Max. Disp. %, 3H-CP55940", 76.6],
  ["Cc1c(C(=O)NCCc2ccc(O)cc2)nn(-c2ccc(Cl)cc2Cl)c1-c1ccc(Cl)cc1 [AM-52]", "Max. Disp. %, 3H-CP55940", 84.7],
  ["CC(C)=CCC/C(C)=C/CNC(=O)c1nn(-c2ccc(Cl)cc2Cl)c(-c2ccc(Cl)cc2)c1C [AKS-10262-2]", "Max. Disp. %, 3H-CP55940", 84.2]
]}

----------
# EXPERIMENTAL_TARGET: CB1 (human) clone receptors (Homo sapiens)
# Sequence (P21554 whole entry): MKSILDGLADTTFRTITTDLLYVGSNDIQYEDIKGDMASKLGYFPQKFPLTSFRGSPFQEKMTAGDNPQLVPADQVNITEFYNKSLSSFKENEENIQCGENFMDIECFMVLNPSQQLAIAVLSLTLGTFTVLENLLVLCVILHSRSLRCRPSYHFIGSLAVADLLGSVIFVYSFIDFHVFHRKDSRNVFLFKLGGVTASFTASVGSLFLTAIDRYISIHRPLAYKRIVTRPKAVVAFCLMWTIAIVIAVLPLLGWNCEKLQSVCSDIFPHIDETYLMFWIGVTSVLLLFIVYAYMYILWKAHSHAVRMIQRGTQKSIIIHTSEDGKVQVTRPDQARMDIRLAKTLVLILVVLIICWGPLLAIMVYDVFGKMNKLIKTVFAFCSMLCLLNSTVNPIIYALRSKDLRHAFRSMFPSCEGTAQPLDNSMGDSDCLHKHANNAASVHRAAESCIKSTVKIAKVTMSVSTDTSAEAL
# TEST_METHOD_NOTES: GTP-γ-[35S] binding in CB1 (human) clone receptors
# EXPERIMENTAL_SETUP: assay run in CB1 (human) clone receptors
pEC50: −log10 of the molar value.

{"columns": ["CHEMICAL_STRUCTURE", "pEC50"],
 "data": [
  ["CCOC(=O)c1nn(-c2ccc(Cl)cc2Cl)c(-c2ccc(Cl)cc2)c1C", 6.71]
]}

----------
A collection of molecules and their measured pKi
# EXPERIMENTAL_TARGET: human CB1 receptor (Homo sapiens)
# Construct: expressed in transfected cells; host or cells: HEK-293
# TEST_METHOD_NOTES: Radioligand displacement in human CB1 receptor-transfected cells (HEK-293)
# Assay type: binding
# EXPERIMENTAL_SETUP: Ki, displacement of 3H-WIN55212-2, human CB1 transfected cells; 3H-WIN55212-2; Table 5, parallel synthesis analogs, concentration assumes 100% yield
# Protocol: Human CB1 receptor affinity. The alkyl amide analogs of the present invention were examined using transfected cell lines expressing the human CB1 receptor (Table 3). Methods—binding assay in transfected cell lines. The methods used for performing binding assays in transfected cells expressing human CB1 or CB2 receptors are those used above. […] Data analysis. Saturation and displacement data were analyzed by unweighted nonlinear regression of receptor binding data. […]
pKi: −log10 of the molar value.

{"columns": ["MOLECULE", "EXPERIMENTAL_TARGET", "pKi"],
 "data": [
  ["CCCCCCCCCC(C)NC(=O)c1nn(-c2ccc(Cl)cc2Cl)c(-c2ccc(Cl)cc2)c1C (stereo not shown) [AKS-10262-3]", "human CB1 receptor (Homo sapiens)", 7.65],
  ["Cc1c(C(=O)NCCC(c2ccccc2)c2ccccc2)nn(-c2ccc(Cl)cc2Cl)c1-c1ccc(Cl)cc1 [AKS-10262-9]", "human CB1 receptor (Homo sapiens)", 7.77],
  ["CCCCCCCCCCCCCNC(=O)c1nn(-c2ccc(Cl)cc2Cl)c(-c2ccc(Cl)cc2)c1C [BT-6]", "human CB1 receptor (Homo sapiens)", 6.76],
  ["Cc1c(C(=O)N2CCC(O)(c3ccccc3)CC2)nn(-c2ccc(Cl)cc2Cl)c1-c1ccc(Cl)cc1 [AM-28]", "human CB1 receptor (Homo sapiens)", 7.24]
]}

----------
# EXPERIMENTAL_TARGET: human CB1 receptor (Homo sapiens)
# Construct: expressed in transfected cells; host or cells: HEK-293
# TEST_METHOD_NOTES: Radioligand displacement in human CB1 receptor-transfected cells (HEK-293)
# Type: binding
# EXPERIMENTAL_SETUP: Ki, displacement of 3H-SR141716A, human CB1 transfected cells; radioligand 3H-SR141716A; Table 3
A collection of compounds and their measured Ki
QUANTITY_MEASURED: Ki (nM)

{"columns": ["COMPOUND", "UNITS", "READOUT_VALUE"],
 "data": [
  ["CCCCNC(=O)c1nn(-c2ccc(Cl)cc2Cl)c(-c2ccc(Cl)cc2)c1C", "nM", 4.79],
  ["CCCCCCNC(=O)c1nn(-c2ccc(Cl)cc2Cl)c(-c2ccc(Cl)cc2)c1C", "nM", 23.5],
  ["Cc1c(C(=O)NC2CCCCC2)nn(-c2ccc(Cl)cc2Cl)c1-c1ccc(Cl)cc1", "nM", 1.02],
  ["CCNC(=O)c1nn(-c2ccc(Cl)cc2Cl)c(-c2ccc(Cl)cc2)c1C [MF9725-54C]", "nM", 35.1],
  ["CCCNC(=O)c1nn(-c2ccc(Cl)cc2Cl)c(-c2ccc(Cl)cc2)c1C [MF9725-55C]", "nM", 6],
  ["Cc1c(C(=O)NC(C)C)nn(-c2ccc(Cl)cc2Cl)c1-c1ccc(Cl)cc1", "nM", 14.4],
  ["Cc1c(C(=O)NCC(C)C)nn(-c2ccc(Cl)cc2Cl)c1-c1ccc(Cl)cc1", "nM", 14.3]
]}
